experimentalSystem: human TLR4 (Homo sapiens, UniProt O00206+Q9Y6Y9)
Construct: host or cells: HEK293 (HEK Blue) cells with NFκB/SEAP reporter
Sequence (O00206 24-839): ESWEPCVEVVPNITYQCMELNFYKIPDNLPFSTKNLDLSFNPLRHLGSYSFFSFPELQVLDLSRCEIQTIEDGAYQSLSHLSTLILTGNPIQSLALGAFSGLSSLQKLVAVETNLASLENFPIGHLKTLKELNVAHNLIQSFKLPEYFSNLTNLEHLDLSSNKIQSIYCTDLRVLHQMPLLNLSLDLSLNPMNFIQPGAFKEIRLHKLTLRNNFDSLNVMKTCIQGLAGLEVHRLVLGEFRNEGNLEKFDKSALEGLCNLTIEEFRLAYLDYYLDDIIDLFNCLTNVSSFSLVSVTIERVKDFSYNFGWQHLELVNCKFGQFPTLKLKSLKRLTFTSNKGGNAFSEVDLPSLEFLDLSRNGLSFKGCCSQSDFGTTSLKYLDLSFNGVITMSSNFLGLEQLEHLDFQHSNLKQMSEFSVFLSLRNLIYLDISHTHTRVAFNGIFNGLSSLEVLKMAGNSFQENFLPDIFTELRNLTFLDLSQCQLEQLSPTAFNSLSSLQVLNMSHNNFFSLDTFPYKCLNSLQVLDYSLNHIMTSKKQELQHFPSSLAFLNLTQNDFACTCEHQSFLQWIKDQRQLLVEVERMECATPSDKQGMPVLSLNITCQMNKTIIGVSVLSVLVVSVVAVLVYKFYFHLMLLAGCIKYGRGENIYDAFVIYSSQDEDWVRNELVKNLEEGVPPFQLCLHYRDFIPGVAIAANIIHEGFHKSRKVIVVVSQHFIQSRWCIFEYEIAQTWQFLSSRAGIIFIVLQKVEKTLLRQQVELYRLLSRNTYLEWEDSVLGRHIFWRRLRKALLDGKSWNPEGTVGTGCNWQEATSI
Sequence (Q9Y6Y9 19-160): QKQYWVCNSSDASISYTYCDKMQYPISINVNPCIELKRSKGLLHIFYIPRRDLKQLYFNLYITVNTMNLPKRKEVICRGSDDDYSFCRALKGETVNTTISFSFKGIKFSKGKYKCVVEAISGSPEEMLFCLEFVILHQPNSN
testDescription: Human TLR4 HEK Blue NFκB/SEAP reporter assay
Assay type: cell-based
details: hTLR4 HEK293 transfectoma; all compounds tested at 10 μM; Cmpd 1 set at 100
Answer each item with its documented human TLR4, values normalized to Cmpd 1.
# answer = number (no unit)

# return recorded human TLR4, values normalized to Cmpd 1 for input CCCCNC(=O)CSc1nc2c([nH]c3ccccc32)c(=O)n1-c1ccccc1
32

Name the recorded human TLR4, values normalized to Cmpd 1 of the molecule listed here: CCC(CC)NC(=O)CSc1nc2c([nH]c3ccccc32)c(=O)n1-c1ccccc1
11

Please give measured human TLR4, values normalized to Cmpd 1 of the following entry: O=C(CSc1nc2c([nH]c3ccccc32)c(=O)n1-c1ccccc1)Nc1ccc2ccccc2c1
21

Complete the entry with human TLR4, values normalized to Cmpd 1 for CCCCCCCCCCCCn1c2ccccc2c2nc(SCC(=O)NC3CCCCC3)n(-c3ccccc3)c(=O)c21
10

* * *

Record form. Attribute: human TLR4, values normalized to Cmpd 1. Fill in for each entry.
experimentalSystem: human TLR4 (Homo sapiens, UniProt O00206+Q9Y6Y9)
Construct: host or cells: HEK293 (HEK Blue) cells with NFκB/SEAP reporter
testDescription: Human TLR4 HEK Blue NFκB/SEAP reporter assay
Format: cell-based
details: hTLR4 HEK293 transfectoma; all compounds tested at 10 μM; Cmpd 1 set at 100
Number only, no unit.

Report measured human TLR4, values normalized to Cmpd 1 on human TLR4 (Homo sapiens, UniProt O00206+Q9Y6Y9); entry: Cn1c2ccccc2c2nc(SCC(=O)NC3CCCCC3)n(-c3ccccc3)c(=O)c21
92

Report the value of human TLR4, values normalized to Cmpd 1 obtained on human TLR4 (Homo sapiens, UniProt O00206+Q9Y6Y9) for O=C(CSc1nc2c([nH]c3ccccc32)c(=O)n1-c1ccccc1)NC1CCC1 .
32

// fetch human TLR4, values normalized to Cmpd 1 for CCCC(C)NC(=O)CSc1nc2c([nH]c3ccccc32)c(=O)n1-c1ccccc1 (stereo not shown) ; system: human TLR4 (Homo sapiens, UniProt O00206+Q9Y6Y9)
13

* * *

experimentalSystem: mouse TLR4 (Mus musculus, UniProt Q9JHF9+Q9QUK6)
Construct: host or cells: HEK293 (HEK Blue) cells with NFκB/SEAP reporter
Sequence (Q9QUK6 26-835): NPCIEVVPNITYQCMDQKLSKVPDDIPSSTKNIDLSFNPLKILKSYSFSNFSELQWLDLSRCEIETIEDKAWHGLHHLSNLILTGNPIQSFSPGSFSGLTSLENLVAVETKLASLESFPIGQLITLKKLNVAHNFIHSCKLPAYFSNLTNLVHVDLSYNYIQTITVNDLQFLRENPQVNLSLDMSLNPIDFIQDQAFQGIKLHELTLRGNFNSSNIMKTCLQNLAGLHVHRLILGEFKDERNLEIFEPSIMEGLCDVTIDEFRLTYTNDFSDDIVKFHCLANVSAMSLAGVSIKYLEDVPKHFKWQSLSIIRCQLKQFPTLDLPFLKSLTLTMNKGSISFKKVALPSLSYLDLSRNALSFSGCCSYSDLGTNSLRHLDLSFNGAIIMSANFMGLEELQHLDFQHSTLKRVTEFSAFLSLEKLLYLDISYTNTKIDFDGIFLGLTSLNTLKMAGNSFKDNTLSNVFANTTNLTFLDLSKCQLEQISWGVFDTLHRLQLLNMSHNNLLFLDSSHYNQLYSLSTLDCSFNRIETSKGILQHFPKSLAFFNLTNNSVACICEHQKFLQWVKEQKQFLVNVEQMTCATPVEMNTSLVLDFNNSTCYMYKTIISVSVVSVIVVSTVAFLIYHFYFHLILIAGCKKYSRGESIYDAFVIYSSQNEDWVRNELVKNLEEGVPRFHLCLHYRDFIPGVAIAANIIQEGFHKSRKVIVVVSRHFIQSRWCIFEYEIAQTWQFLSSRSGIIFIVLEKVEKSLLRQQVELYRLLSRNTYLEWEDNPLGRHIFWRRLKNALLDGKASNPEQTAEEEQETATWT
Sequence (Q9JHF9 19-160): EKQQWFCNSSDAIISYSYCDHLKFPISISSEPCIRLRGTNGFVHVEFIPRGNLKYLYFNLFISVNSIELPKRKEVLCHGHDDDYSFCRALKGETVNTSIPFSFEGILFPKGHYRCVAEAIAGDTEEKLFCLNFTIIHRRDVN
testDescription: Murine TLR4 HEK Blue NFκB/SEAP reporter assay
Format: cell-based
details: mTLR4 HEK transfectoma, 312 nM to 10 μM; Cmpd 1 set at 100
Protocol: The above assays were utilized to compare the derivatives of the lead pyrimidoindole for their ability to activate mouse and human TLR4. […] Each cytokine induction curve was first converted to a percent activity curve, and then the AUC of the percent activity curve was calculated. The process of converting to a percent activity curve allowed subtracting background and adjusting for plate-to-plate variation. The culture supernatants were harvested after a 20-24 h incubation period. […]
# cutoff 20 applies to mouse TLR4, area under curve (AUC) values normalized to Cmpd 1; >= gives 1, < gives 0

Assess whether reported mouse TLR4, area under curve (AUC) values normalized to Cmpd 1 for O=C(CSc1nc2c([nH]c3ccccc32)c(=O)n1-c1ccccc1)NCc1ccco1 sits at 20 or higher.
0

For this molecule, is measured mouse TLR4, area under curve (AUC) values normalized to Cmpd 1 20 or higher? O=C(CSc1nc2c([nH]c3ccccc32)c(=O)n1-c1ccccc1)NC1CCC1
0

Dear colleague, could you confirm whether Cn1c2ccccc2c2nc(SCC(=O)NC3CCCCC3)n(-c3ccccc3)c(=O)c21 has mouse TLR4, area under curve (AUC) values normalized to Cmpd 1 at or above 20?
1

Check the entry CCCCNC(=O)CSc1nc2c([nH]c3ccccc32)c(=O)n1-c1ccccc1 : does mouse TLR4, area under curve (AUC) values normalized to Cmpd 1 equal or exceed 20?
1

Is it the case that CN(C(=O)CSc1nc2c3ccccc3n(C)c2c(=O)n1-c1ccccc1)C1CCCCC1 has mouse TLR4, area under curve (AUC) values normalized to Cmpd 1 reaching or exceeding 20?
0

Please tell me: is the molecule O=C(CSc1nc2c([nH]c3ccccc32)c(=O)n1-c1ccccc1)NC1CCCCC1 at or over 20 in terms of mouse TLR4, area under curve (AUC) values normalized to Cmpd 1?
1
